TARGET OF ASSAY: Voltage-dependent T-type calcium channel subunit alpha-1H (Homo sapiens, UniProt O95180)
Sequence (O95180 whole entry): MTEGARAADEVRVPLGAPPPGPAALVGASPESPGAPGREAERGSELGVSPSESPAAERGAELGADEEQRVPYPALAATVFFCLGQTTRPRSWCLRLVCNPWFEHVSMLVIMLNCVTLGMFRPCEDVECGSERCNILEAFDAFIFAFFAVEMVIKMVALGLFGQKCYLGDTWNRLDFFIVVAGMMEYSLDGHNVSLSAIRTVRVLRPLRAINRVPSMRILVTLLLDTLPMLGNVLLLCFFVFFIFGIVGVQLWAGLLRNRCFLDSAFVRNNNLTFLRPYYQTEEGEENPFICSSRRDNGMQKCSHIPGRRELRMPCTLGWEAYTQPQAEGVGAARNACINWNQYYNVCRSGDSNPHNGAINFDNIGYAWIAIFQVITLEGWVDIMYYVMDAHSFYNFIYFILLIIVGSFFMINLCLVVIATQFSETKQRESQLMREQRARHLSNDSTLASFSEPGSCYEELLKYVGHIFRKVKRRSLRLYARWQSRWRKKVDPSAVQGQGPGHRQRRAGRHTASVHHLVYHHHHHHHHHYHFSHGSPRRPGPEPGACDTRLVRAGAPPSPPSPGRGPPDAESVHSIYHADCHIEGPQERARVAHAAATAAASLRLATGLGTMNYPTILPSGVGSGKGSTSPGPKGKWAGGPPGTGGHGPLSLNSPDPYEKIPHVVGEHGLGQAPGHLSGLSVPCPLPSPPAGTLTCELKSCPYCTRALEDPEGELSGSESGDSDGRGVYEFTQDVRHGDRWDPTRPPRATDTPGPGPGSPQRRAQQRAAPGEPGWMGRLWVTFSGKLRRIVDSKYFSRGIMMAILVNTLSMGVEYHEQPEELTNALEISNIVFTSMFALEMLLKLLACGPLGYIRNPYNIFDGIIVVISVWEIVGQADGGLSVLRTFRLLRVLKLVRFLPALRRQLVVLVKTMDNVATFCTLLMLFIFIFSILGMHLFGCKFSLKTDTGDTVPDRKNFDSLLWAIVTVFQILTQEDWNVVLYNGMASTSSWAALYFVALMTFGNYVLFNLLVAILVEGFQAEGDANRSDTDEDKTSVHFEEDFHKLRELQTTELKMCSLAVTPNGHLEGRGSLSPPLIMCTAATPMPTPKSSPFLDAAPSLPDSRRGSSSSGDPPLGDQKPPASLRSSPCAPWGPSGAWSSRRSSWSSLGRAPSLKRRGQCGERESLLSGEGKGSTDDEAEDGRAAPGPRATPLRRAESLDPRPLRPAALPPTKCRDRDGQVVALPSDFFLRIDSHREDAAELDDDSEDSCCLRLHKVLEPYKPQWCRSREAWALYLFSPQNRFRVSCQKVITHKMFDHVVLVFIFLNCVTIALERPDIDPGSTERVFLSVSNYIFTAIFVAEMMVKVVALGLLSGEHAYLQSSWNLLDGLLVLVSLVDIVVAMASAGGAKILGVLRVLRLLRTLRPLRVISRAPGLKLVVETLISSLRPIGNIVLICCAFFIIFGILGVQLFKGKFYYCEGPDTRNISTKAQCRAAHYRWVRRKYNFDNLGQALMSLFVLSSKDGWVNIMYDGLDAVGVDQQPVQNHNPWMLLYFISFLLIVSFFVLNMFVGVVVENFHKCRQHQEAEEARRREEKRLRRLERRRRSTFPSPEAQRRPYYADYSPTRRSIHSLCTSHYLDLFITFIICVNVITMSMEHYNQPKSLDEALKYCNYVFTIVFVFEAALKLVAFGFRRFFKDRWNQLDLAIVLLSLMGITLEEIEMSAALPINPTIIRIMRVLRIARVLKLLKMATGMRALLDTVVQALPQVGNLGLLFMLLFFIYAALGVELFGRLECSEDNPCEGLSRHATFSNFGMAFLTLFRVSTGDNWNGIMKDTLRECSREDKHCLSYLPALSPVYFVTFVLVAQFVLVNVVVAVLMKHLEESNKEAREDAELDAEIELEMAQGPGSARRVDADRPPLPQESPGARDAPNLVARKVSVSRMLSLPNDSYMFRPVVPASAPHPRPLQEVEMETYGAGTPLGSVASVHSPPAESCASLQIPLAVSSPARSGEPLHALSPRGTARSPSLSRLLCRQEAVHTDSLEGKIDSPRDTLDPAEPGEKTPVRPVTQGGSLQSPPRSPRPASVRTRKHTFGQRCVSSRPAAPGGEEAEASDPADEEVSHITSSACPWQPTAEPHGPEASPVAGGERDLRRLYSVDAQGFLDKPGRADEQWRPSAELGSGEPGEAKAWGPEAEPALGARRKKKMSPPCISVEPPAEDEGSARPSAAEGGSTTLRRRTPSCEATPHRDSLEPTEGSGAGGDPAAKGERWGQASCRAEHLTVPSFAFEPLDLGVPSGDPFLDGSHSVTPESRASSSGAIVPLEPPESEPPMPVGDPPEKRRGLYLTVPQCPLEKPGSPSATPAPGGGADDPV
TEST DETAILS: Inhibition of recombinant Cav3.2 channel (unknown origin) expressed in HEK293 cells assessed as effect on calcium flux incubated for 3 mins by FLIPR assay
PROPERTY LABEL: IC50 (nM)

P. CO[C@]1(CCN(C)CCCc2nc3ccccc3[nH]2)C[C@@H]2CC[C@H]1c1ccccc12 (racemic)
Q. CC(C)C(=O)O[C@]1(CCN(C)CCCc2nc3ccccc3[nH]2)C[C@@H]2CC[C@H]1c1ccccc12
R. COc1cccc2nc(CCCN(C)CC[C@]3(OC(=O)C(C)C)C[C@H]4CCC[C@@H]3c3ccccc34)[nH]c12
S. CC(C)C(=O)O[C@]1(CCN(C)CCCc2nc3ccccc3[nH]2)C[C@@H]2CC[C@H]1c1nccnc12 (racemic)
**Query** Order required: smallest reported IC50 first, largest last, for all compounds above. Could you list the labels in the order requested?
**Result** R, P, Q, S

----------
TARGET OF ASSAY: Voltage-gated inwardly rectifying potassium channel KCNH2 (Homo sapiens)
TEST DETAILS: Inhibition of human ERG expressed in HEK cells by patch clamp assay
pIC50: −log10 of the molar value.
PROPERTY LABEL: pIC50

**Query** Can you share its pIC50? I mean this molecule: COc1cccc2nc(CCCN(C)CC[C@]3(OC(=O)C(C)C)C[C@H]4CCC[C@@H]3c3ccccc34)[nH]c12
**Result** > 6.40

----------
System: Heart
TEST DETAILS: Increase in coronary flow in Wistar rat Langendorff isolated perfused heart
Format: functional, tissue-based
CONDITION DESCRIPTION: Rattus norvegicus, Wistar, Heart
pEC50: −log10 of the molar value.
PROPERTY LABEL: pEC50

Example entries and their recorded answers appear below.
MOLECULE	TARGET OF ASSAY	MEASURED
COCC(=O)O[C@]1(CCN(C)CCCc2nc3ccccc3[nH]2)CCc2cc(F)ccc2[C@@H]1C(C)C	Heart	7.59
CC(C)C(=O)O[C@]1(CCN(C)CCCc2nc3ccccc3[nH]2)C[C@@H](OCc2ccccc2)c2cc(F)ccc2[C@@H]1C(C)C	Heart	7.70
CC(C)C(=O)O[C@]1(CCN(C)CCCc2nc3ccccc3[nH]2)C[C@H](O)c2cc(F)ccc2[C@@H]1C(C)C	Heart	7.42
CC(C)C(=O)O[C@@]1(CCN(C)CCCc2nc3ccccc3[nH]2)C[C@H]2CC[C@@H]1c1ccccc12	Heart	7.59

1. CO[C@@H]1C[C@@](CCN(C)CCCc2nc3ccccc3[nH]2)(OC(=O)C(C)C)[C@@H](C(C)C)c2ccc(F)cc21
2. CN(CCCc1nc2ccccc2[nH]1)CC[C@@]1(OC(=O)C2CC2)C[C@@H]2CC[C@H]1c1ccccc12 (racemic)
**Query** Quick one: lower pEC50, 1 or 2 ? State your choice using its label.
**Result** 2

----------
TARGET OF ASSAY: Voltage-dependent L-type calcium channel subunit alpha-1C (Homo sapiens, UniProt Q13936)
Sequence (Q13936 whole entry): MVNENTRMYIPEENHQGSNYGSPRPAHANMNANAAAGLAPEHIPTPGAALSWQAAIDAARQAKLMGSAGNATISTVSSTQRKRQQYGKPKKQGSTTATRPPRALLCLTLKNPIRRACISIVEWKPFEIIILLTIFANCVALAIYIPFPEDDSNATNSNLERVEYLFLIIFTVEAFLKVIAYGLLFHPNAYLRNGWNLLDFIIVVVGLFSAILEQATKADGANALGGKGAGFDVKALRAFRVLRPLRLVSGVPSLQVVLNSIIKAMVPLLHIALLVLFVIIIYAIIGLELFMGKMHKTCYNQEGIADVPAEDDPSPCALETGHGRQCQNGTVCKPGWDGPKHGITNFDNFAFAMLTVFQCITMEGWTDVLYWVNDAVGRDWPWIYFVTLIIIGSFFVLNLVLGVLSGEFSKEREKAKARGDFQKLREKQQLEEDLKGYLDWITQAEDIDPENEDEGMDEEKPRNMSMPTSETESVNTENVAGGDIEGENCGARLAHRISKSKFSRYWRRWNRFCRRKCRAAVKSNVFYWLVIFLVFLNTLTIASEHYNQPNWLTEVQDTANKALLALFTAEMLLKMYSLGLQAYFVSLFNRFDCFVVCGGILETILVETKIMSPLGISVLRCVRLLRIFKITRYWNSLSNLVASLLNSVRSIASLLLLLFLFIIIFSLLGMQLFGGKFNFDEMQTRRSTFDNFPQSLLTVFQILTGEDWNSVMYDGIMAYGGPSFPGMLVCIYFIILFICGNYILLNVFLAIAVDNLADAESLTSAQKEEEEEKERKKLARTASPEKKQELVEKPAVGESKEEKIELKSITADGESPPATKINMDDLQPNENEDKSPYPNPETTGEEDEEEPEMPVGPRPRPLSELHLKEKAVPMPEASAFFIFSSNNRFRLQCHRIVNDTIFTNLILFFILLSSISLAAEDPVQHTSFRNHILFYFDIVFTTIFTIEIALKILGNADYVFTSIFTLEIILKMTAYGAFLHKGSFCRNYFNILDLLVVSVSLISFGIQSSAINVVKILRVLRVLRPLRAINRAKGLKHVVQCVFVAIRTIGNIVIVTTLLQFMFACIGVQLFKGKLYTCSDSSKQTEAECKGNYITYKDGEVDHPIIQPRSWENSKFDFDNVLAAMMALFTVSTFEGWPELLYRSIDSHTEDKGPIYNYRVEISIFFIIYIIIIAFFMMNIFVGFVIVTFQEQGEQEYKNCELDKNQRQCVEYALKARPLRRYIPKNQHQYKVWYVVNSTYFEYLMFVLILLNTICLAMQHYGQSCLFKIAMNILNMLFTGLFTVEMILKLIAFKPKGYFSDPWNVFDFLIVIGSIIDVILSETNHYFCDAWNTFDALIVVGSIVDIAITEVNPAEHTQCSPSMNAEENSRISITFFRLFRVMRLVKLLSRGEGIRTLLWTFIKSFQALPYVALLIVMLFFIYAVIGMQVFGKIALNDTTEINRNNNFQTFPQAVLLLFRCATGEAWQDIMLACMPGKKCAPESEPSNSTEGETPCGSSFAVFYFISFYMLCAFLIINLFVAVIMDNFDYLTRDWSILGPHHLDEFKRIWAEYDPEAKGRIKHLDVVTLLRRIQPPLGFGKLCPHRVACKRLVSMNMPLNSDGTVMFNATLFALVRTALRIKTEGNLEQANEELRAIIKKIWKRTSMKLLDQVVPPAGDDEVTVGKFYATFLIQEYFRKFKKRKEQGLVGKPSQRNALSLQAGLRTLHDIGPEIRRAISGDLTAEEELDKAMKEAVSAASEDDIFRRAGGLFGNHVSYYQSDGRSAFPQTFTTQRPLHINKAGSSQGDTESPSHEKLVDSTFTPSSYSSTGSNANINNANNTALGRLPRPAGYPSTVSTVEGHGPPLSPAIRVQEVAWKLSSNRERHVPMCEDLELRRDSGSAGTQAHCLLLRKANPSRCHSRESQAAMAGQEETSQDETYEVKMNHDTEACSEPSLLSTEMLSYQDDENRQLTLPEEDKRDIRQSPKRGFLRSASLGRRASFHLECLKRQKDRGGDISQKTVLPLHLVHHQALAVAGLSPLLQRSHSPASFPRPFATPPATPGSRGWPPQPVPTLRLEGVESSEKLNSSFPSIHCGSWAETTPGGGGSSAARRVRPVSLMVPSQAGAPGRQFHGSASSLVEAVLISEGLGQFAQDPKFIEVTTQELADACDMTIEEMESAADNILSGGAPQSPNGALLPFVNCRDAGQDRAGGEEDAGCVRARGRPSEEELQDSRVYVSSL
TEST DETAILS: Inhibition of recombinant Cav1.2 channel (unknown origin) expressed in HEK293 cells assessed as effect on calcium flux incubated for 3 mins by FLIPR assay
PROPERTY LABEL: pIC50
// pIC50 is dimensionless: -log10 of concentration (M)

Example entries and their recorded answers appear below.
MOLECULE	PROPERTY LABEL	MEASURED
CN(CCCc1nc2ccccc2[nH]1)CC[C@@]1(OC(=O)C2CC2)C[C@@H]2CC[C@H]1c1ccccc12 (racemic)	pIC50	6.85
CCCC[C@@H]1C[C@@](CCN(C)CCCc2nc3ccccc3[nH]2)(OC(=O)COC)[C@@H](C(C)C)c2ccc(F)cc21	pIC50	6.76
CC(C)C(=O)O[C@]1(CCN(C)CCCc2nc3ccccc3[nH]2)C[C@@H]2CCC[C@H]1c1ccccc12	pIC50	6.19

**Query** What is its pIC50 for Voltage-dependent L-type calcium channel subunit alpha-1C (Homo sapiens, UniProt Q13936)? Entry: CC(C)C(=O)O[C@@]1(CCN(C)CCCc2nc3ccccc3[nH]2)C[C@H]2CCC[C@@H]1c1ccccc12
**Result** 6.34

**Query** What is its pIC50 for Voltage-dependent L-type calcium channel subunit alpha-1C (Homo sapiens, UniProt Q13936)? Entry: COCC(=O)O[C@]1(CCN(C)CCCc2nc3ccccc3[nH]2)C[C@@H]2CC[C@H]1c1ccccc12 (racemic)
**Result** 6.13

**Query** What is its pIC50 for Voltage-dependent L-type calcium channel subunit alpha-1C (Homo sapiens, UniProt Q13936)? Entry: CC(C)C(=O)O[C@]1(CCN(C)CCCc2nc3ccccc3[nH]2)C[C@@H](OCc2ccccc2)c2cc(F)ccc2[C@@H]1C(C)C
**Result** 6.81

**Query** What is its pIC50 for Voltage-dependent L-type calcium channel subunit alpha-1C (Homo sapiens, UniProt Q13936)? Entry: COc1cccc2nc(CCCN(C)CC[C@]3(OC(=O)C(C)C)C[C@H]4CCC[C@@H]3c3ccccc34)[nH]c12
**Result** 6.41
